Tested on: 695427-040-R-J1-PDC complex spheroids, viability percent T/C;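 further: spheroids exposed to compounds for seven days before readout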
Assay: Anticancer human tumor 695427-040-R-J1-PDC patient-derived colon adenocarcinoma cell line growth inhibition [GQUAD]
Conditions: second compound 0.1 µM; first compound 3.16 µM; active compounds read low
In this section, each of the compounds is paired with its reported viability, T/C.
Give the quantity in %, number only.

Guide cases for viability, T/C, answers given:
COMPOUND	viability, T/C [%]
COc1ncnc(C2CC2)c1-c1ncc2cnn(Cc3ccc(-c4nc(C(F)(F)F)cn4C(C)C)cc3)c2n1 + Cc1cnc(CNC(=O)c2c(=O)c3ccc(N4CCCN(C)CC4)nc3n3c2sc2ccccc23)cn1	72.1
CC(C)(O)C1CCC(Nc2ccc3ncc(-c4cccc(C(F)(F)F)c4)n3n2)CC1 (stereo unspecified) + Cc1[nH]c2ccc(F)cc2c1-c1nc2c3cccnc3c3ncccc3c2[nH]1	100
O=C(NO)c1cnc(N2CCN(S(=O)(=O)c3ccc4ccccc4c3)CC2)nc1 + CN(C)c1ccc(Nc2c3ccc(NC(=O)CCN4CCCC4)cc3nc3cc(NC(=O)CCN4CCCC4)ccc23)cc1	0.24
CCCS(=O)(=O)Nc1ccc(F)c(C(=O)c2c[nH]c3ncc(-c4ccc(Cl)cc4)cc23)c1F + CN(C)c1ccc(Nc2c3ccc(NC(=O)CCN4CCCC4)cc3nc3cc(NC(=O)CCN4CCCC4)ccc23)cc1	111
O=C(c1cc(Cc2n[nH]c(=O)c3ccccc23)ccc1F)N1CCN(C(=O)C2CC2)CC1 + Cc1[nH]c2ccc(F)cc2c1-c1nc2c3cccnc3c3ncccc3c2[nH]1	93.2

The compound listed as Cc1cccc(N(C)C(=O)C2C(O)CCN2c2nc(C)cc(C(F)(F)F)c2C#N)c1 (stereo unspecified) + Cc1[nH]c2ccc(F)cc2c1-c1nc2c3cccnc3c3ncccc3c2[nH]1 has a reported viability, T/C of 104

The compound listed as COc1ncnc(C2CC2)c1-c1ncc2cnn(Cc3ccc(-c4nc(C(F)(F)F)cn4C(C)C)cc3)c2n1 + CN(C)c1ccc(Nc2c3ccc(NC(=O)CCN4CCCC4)cc3nc3cc(NC(=O)CCN4CCCC4)ccc23)cc1 has a reported viability, T/C of 101
